Measured IC50 by item
tested on: Hep3B; experiment: cells; format: cell-based; settings: Homo sapiens, MTT, read-out: IC50

compound | IC50
Cc1ccc(-c2cc(-c3ccncc3)nc(N[C@@H]3O[C@H](CO)[C@@H](O)[C@H](O)[C@H]3O)n2)cc1 | > 500 µg/mL
Cc1cccc(-c2cc(-c3ccncc3)nc(N[C@@H]3O[C@H](CO)[C@@H](O)[C@H](O)[C@H]3O)n2)c1 | > 500 µg/mL
CC(=O)OC[C@H]1O[C@@H](Nc2nc(-c3ccncc3)cc(-c3ccc(C)cc3)n2)[C@H](OC(C)=O)[C@@H](OC(C)=O)[C@@H]1OC(C)=O | > 500 µg/mL
CC(=O)OC[C@H]1O[C@@H](Nc2nc(-c3ccc(C)cc3)cc(-c3cccnc3)n2)[C@H](OC(C)=O)[C@@H](OC(C)=O)[C@@H]1OC(C)=O | > 500 µg/mL
Cc1ccc(-c2cc(-c3cccnc3)nc(N[C@@H]3O[C@H](CO)[C@@H](O)[C@H](O)[C@H]3O)n2)cc1 | > 500 µg/mL
Cc1ccccc1-c1cc(-c2ccccn2)nc(N[C@@H]2O[C@H](CO)[C@@H](O)[C@H](O)[C@H]2O)n1 | > 500 µg/mL
CC(=O)OC[C@H]1O[C@@H](Nc2nc(-c3cccnc3)cc(-c3cccc(C)c3)n2)[C@H](OC(C)=O)[C@@H](OC(C)=O)[C@@H]1OC(C)=O | > 500 µg/mL
CC(=O)OC[C@H]1O[C@@H](Nc2nc(-c3ccncc3)cc(-c3cccc(C)c3)n2)[C@H](OC(C)=O)[C@@H](OC(C)=O)[C@@H]1OC(C)=O | > 500 µg/mL
CC(=O)OC[C@H]1O[C@@H](Nc2nc(-c3cccnc3)cc(-c3ccccc3C)n2)[C@H](OC(C)=O)[C@@H](OC(C)=O)[C@@H]1OC(C)=O | > 500 µg/mL
CC(=O)OC[C@H]1O[C@@H](Nc2nc(-c3ccc(C)cc3)cc(-c3ccccn3)n2)[C@H](OC(C)=O)[C@@H](OC(C)=O)[C@@H]1OC(C)=O | 7.18 µg/mL
Cc1ccccc1-c1cc(-c2ccncc2)nc(N[C@@H]2O[C@H](CO)[C@@H](O)[C@H](O)[C@H]2O)n1 | > 500 µg/mL
CC(=O)OC[C@H]1O[C@@H](Nc2nc(-c3ccncc3)cc(-c3ccccc3C)n2)[C@H](OC(C)=O)[C@@H](OC(C)=O)[C@@H]1OC(C)=O | > 500 µg/mL
O=c1[nH]cc(F)c(=O)[nH]1 [Compound 5FU, 5-fluorouracil, reference compound] | 62.9 µg/mL

====

assay: LDH cytotoxic activity assay, HeLa; type: cell-based; settings: human, HeLa cells, 75 μg/mL
cytotoxicity at 24 h, 75 μg/mL values, listed per item

smiles-entry | units | cytotoxicity at 24 h, 75 μg/mL
Cc1ccc(-c2cc(-c3cccnc3)nc(N[C@@H]3O[C@H](CO)[C@@H](O)[C@H](O)[C@H]3O)n2)cc1 | % | 42
CC(=O)OC[C@H]1O[C@@H](Nc2nc(-c3cccc(C)c3)cc(-c3ccccn3)n2)[C@H](OC(C)=O)[C@@H](OC(C)=O)[C@@H]1OC(C)=O | % | 42.8
Cc1ccccc1-c1cc(-c2ccncc2)nc(N[C@@H]2O[C@H](CO)[C@@H](O)[C@H](O)[C@H]2O)n1 | % | 40.6
Cc1cccc(-c2cc(-c3ccncc3)nc(N[C@@H]3O[C@H](CO)[C@@H](O)[C@H](O)[C@H]3O)n2)c1 | % | 44.5
CC(=O)OC[C@H]1O[C@@H](Nc2nc(-c3ccncc3)cc(-c3ccc(C)cc3)n2)[C@H](OC(C)=O)[C@@H](OC(C)=O)[C@@H]1OC(C)=O | % | 46.1
Cc1cccc(-c2cc(-c3cccnc3)nc(N[C@@H]3O[C@H](CO)[C@@H](O)[C@H](O)[C@H]3O)n2)c1 | % | 40.3
CC(=O)OC[C@H]1O[C@@H](Nc2nc(-c3cccnc3)cc(-c3ccccc3C)n2)[C@H](OC(C)=O)[C@@H](OC(C)=O)[C@@H]1OC(C)=O | % | 45
CC(=O)OC[C@H]1O[C@@H](Nc2nc(-c3ccccn3)cc(-c3ccccc3C)n2)[C@H](OC(C)=O)[C@@H](OC(C)=O)[C@@H]1OC(C)=O | % | 51.7
CC(=O)OC[C@H]1O[C@@H](Nc2nc(-c3ccc(C)cc3)cc(-c3ccccn3)n2)[C@H](OC(C)=O)[C@@H](OC(C)=O)[C@@H]1OC(C)=O | % | 77.1
Cc1cccc(-c2cc(-c3ccccn3)nc(N[C@@H]3O[C@H](CO)[C@@H](O)[C@H](O)[C@H]3O)n2)c1 | % | 77.1
Cc1ccccc1-c1cc(-c2cccnc2)nc(N[C@@H]2O[C@H](CO)[C@@H](O)[C@H](O)[C@H]2O)n1 | % | 49.7
CC(=O)OC[C@H]1O[C@@H](Nc2nc(-c3ccc(C)cc3)cc(-c3cccnc3)n2)[C@H](OC(C)=O)[C@@H](OC(C)=O)[C@@H]1OC(C)=O | % | 32.4

From: paper PMC10387993
